System: poly dA-poly dT (DNA, polymer) A/T
Test: UV thermal melting at 260 nm
Conditions: Na+ (sodium cacodylate, I = 0.05 M), pH 7.0, r = [compound]/[polynucleotide phosphate] = 0.3, error ±0.5, per base
Where a name gives a salt, the structure may show the parent alone.
hey, just use rule met if measured ΔTm is less than 6 °C, otherwise rule not met

                                   molecule         group
0  CC(C)NC(=N)c1ccc2nc(-c3ccc(-c4ccc([N+](=O)[O-])cc4)o3)sc2c1      rule met
1  Cl.Clc1ccc(-c2ccc(-c3nc4ccc(C5=NCCN5)cc4s3)o2)cc1  rule not met
2  Clc1ccc(-c2ccc(-c3nc4cc(C5=NCCN5)ccc4[nH]3)o2)cc1 (as salt: hydrochloride)  rule not met
3  CC(C)NC(=N)c1ccc2nc(-c3ccc(-c4ccc(Cl)cc4)o3)sc2c1      rule met
4  Cl.O=[N+]([O-])c1ccc(-c2ccc(-c3nc4ccc(C5=NCCN5)cc4s3)o2)cc1      rule met

----------
Test system: NCI-H358
Assay: MTS cytotoxicity assay, 2D cell culture
Conditions: read-out: Cytotoxicity Assay IC50 ± SD; NCI-H358 2D, 72 h, MTS; n = 2
QUANTITY KIND: IC50

In [3]: df
Out[3]:
                                smiles_code   result
0  N#CC(=Cc1ccc(-c2ccc(Cl)cc2)o1)c1nc2cc([N+](=O)[O-])ccc2[nH]1  3.58 µM
1  N#CC(=Cc1ccc(-c2ccc([N+](=O)[O-])cc2)o1)c1nc2cc([N+](=O)[O-])ccc2[nH]1   3.5 µM

----------
Assay: MTS cytotoxicity assay, 2D cell culture, normal lung fibroblasts
Settings: human, MRC-5 normal lung fibroblasts, 2D culture
This section presents compounds with their documented IC50 at 72 h values.
QUANTITY KIND: IC50 at 72 h

In [3]: df
Out[3]:
                                   compound   result
0  Cl.Clc1ccc(-c2ccc(-c3nc4ccc(C5=NCCN5)cc4s3)o2)cc1  6.65 µM
1  N#C/C(=C\c1ccc(-c2ccc(Cl)cc2)o1)c1nc2ccccc2[nH]1  > 50 µM
2  COc1cc2c(Nc3ccc(Br)cc3F)ncnc2cc1OCC1CCN(C)CC1 [Vandetanib, reference compound]  11.1 µM
3  N#Cc1ccc2nc(-c3ccc(-c4ccc([N+](=O)[O-])cc4)o3)sc2c1  > 50 µM
4  N#C/C(=C\c1ccc(-c2ccc([N+](=O)[O-])cc2)o1)c1nc2ccccc2s1  > 50 µM
5  N#Cc1ccc2[nH]c(-c3ccc(-c4ccc(Cl)cc4)o3)nc2c1  > 50 µM
6  N#Cc1ccc2nc(-c3ccc(-c4ccc(Cl)cc4)o3)sc2c1  > 50 µM
7  CC(C)NC(=N)c1ccc2nc(-c3ccc(-c4ccc(Cl)cc4)o3)sc2c1  9.88 µM

----------
System: A549
Assay: BrdU proliferation assay, 3D hanging drop cell culture
Assay type: cell-based, human
Conditions: Homo sapiens, A549, 3D, BrdU, n = 2, read-out: Proliferation Assay IC50 ± SD
QUANTITY KIND: IC50

In [3]: df
Out[3]:
                                   molecule    result
0  N#Cc1ccc2nc(-c3ccc(-c4ccc(Cl)cc4)o3)sc2c1  > 100 µM
1  N#C/C(=C\c1ccc(-c2ccc([N+](=O)[O-])cc2)o1)c1nc2ccccc2s1  > 100 µM
2  CC(C)NC(=N)c1ccc2nc(-c3ccc(-c4ccc([N+](=O)[O-])cc4)o3)sc2c1   65.9 µM
3  COc1cc2c(Nc3ccc(Br)cc3F)ncnc2cc1OCC1CCN(C)CC1 [Vandetanib, reference compound]   > 50 µM

----------
This section presents compounds with their documented MIC values.
System: S. aureus ATCC 29213
Experiment: Broth microdilution testing (CLSI)
Assay type: cell-based, Staphylococcus aureus
Conditions: Staphylococcus aureus, ATCC29213, broth microdilution, 16–24h at 37 °C; read-out: MIC S. aureus ATCC 29213

COMPOUND	TESTED ON	MIC
N#Cc1ccc2[nH]c(-c3ccc(-c4ccc(Cl)cc4)o3)nc2c1 [Compound 13]	S. aureus ATCC 29213	> 100 µM
Cl.O=[N+]([O-])c1ccc(-c2ccc(-c3nc4ccc(C5=NCCN5)cc4s3)o2)cc1 [Compound 6]	S. aureus ATCC 29213	> 100 µM
CC(C)(O/N=C(\C(=O)N[C@@H]1C(=O)N2C(C(=O)[O-])=C(C[n+]3ccccc3)CS[C@H]12)c1csc(N)n1)C(=O)O [Ceftazidime, reference compound]	S. aureus ATCC 29213	16 µM
N#C/C(=C\c1ccc(-c2ccc([N+](=O)[O-])cc2)o1)c1nc2ccccc2s1 [Compound 19]	S. aureus ATCC 29213	> 100 µM
N#Cc1ccc2[nH]c(-c3ccc(-c4ccc([N+](=O)[O-])cc4)o3)nc2c1 [Compound 10]	S. aureus ATCC 29213	> 100 µM
N#Cc1ccc2nc(-c3ccc(-c4ccc([N+](=O)[O-])cc4)o3)sc2c1 [Compound 4]	S. aureus ATCC 29213	> 100 µM
N#C/C(=C\c1ccc(-c2ccc([N+](=O)[O-])cc2)o1)c1nc2ccccc2[nH]1 [Compound 17]	S. aureus ATCC 29213	> 100 µM
Cl.Clc1ccc(-c2ccc(-c3nc4ccc(C5=NCCN5)cc4s3)o2)cc1 [Compound 9]	S. aureus ATCC 29213	25 µM

----------
This section presents compounds with their documented IC50 values.
System: HCC827
Experiment: BrdU proliferation assay, 3D hanging drop cell culture
Assay type: cell-based, human
Details: Homo sapiens, HCC827, 3D, BrdU, n = 2, read-out: Proliferation Assay IC50 ± SD
QUANTITY KIND: IC50

                                   compound    result
0  N#Cc1ccc2[nH]c(-c3ccc(-c4ccc([N+](=O)[O-])cc4)o3)nc2c1 [Compound 10]  > 100 µM
1  N#Cc1ccc2nc(-c3ccc(-c4ccc([N+](=O)[O-])cc4)o3)sc2c1 [Compound 4]  > 100 µM
2  N#Cc1ccc2nc(-c3ccc(-c4ccc(Cl)cc4)o3)sc2c1 [Compound 7]  > 100 µM

----------
Test system: S. aureus ATCC 29213
Test: Broth microdilution testing (CLSI)
Type: cell-based, Staphylococcus aureus
Conditions: Staphylococcus aureus, ATCC29213, broth microdilution, 16–24h at 37 °C; read-out: MIC S. aureus ATCC 29213
This section presents compounds with their documented MIC values.
QUANTITY KIND: MIC

>>> df
                                   compound    result
0  N#C/C(=C\c1ccc(-c2ccc(Cl)cc2)o1)c1nc2ccccc2[nH]1  > 100 µM
1  C[C@@H](c1ncncc1F)[C@](O)(Cn1cncn1)c1ccc(F)cc1F [Voriconazole, reference compound]   > 64 µM
2  N#Cc1ccc2nc(-c3ccc(-c4ccc(Cl)cc4)o3)sc2c1  > 100 µM

----------
Tested on: HCC827
Experiment: BrdU proliferation assay, 3D hanging drop cell culture
Type: cell-based, human
Details: Homo sapiens, HCC827, 3D, BrdU, n = 2, read-out: Proliferation Assay IC50 ± SD
This section presents compounds with their documented IC50 values.
QUANTITY KIND: IC50

In [3]: df
Out[3]:
                                smiles_code  tested_on    result
0  N#C/C(=C\c1ccc(-c2ccc([N+](=O)[O-])cc2)o1)c1nc2ccccc2[nH]1     HCC827  > 100 µM
1  N#Cc1ccc2[nH]c(-c3ccc(-c4ccc(Cl)cc4)o3)nc2c1     HCC827  > 100 µM
2  N#C/C(=C\c1ccc(-c2ccc([N+](=O)[O-])cc2)o1)c1nc2ccccc2s1     HCC827  > 100 µM

----------
Tested on: E. coli ATCC 25922
Assay: Broth microdilution testing (CLSI)
Type: cell-based, Escherichia coli
Conditions: Escherichia coli, ATCC25922; broth microdilution, 16–24h at 37 °C; read-out: MIC E. coli ATCC 25922
This section presents molecules with their documented MIC values.
QUANTITY KIND: MIC

                                smiles_code    result
0  N#C/C(=C\c1ccc(-c2ccc(Cl)cc2)o1)c1nc2ccccc2[nH]1  > 100 µM
1  N#Cc1ccc2nc(-c3ccc(-c4ccc(Cl)cc4)o3)sc2c1  > 100 µM
2  N#C/C(=C\c1ccc(-c2ccc([N+](=O)[O-])cc2)o1)c1nc2ccccc2s1  > 100 µM
